Below are IC50 measurements against Xanthine dehydrogenase/oxidase (Bos taurus) drawn from the literature.
Sequence (P80457 whole entry): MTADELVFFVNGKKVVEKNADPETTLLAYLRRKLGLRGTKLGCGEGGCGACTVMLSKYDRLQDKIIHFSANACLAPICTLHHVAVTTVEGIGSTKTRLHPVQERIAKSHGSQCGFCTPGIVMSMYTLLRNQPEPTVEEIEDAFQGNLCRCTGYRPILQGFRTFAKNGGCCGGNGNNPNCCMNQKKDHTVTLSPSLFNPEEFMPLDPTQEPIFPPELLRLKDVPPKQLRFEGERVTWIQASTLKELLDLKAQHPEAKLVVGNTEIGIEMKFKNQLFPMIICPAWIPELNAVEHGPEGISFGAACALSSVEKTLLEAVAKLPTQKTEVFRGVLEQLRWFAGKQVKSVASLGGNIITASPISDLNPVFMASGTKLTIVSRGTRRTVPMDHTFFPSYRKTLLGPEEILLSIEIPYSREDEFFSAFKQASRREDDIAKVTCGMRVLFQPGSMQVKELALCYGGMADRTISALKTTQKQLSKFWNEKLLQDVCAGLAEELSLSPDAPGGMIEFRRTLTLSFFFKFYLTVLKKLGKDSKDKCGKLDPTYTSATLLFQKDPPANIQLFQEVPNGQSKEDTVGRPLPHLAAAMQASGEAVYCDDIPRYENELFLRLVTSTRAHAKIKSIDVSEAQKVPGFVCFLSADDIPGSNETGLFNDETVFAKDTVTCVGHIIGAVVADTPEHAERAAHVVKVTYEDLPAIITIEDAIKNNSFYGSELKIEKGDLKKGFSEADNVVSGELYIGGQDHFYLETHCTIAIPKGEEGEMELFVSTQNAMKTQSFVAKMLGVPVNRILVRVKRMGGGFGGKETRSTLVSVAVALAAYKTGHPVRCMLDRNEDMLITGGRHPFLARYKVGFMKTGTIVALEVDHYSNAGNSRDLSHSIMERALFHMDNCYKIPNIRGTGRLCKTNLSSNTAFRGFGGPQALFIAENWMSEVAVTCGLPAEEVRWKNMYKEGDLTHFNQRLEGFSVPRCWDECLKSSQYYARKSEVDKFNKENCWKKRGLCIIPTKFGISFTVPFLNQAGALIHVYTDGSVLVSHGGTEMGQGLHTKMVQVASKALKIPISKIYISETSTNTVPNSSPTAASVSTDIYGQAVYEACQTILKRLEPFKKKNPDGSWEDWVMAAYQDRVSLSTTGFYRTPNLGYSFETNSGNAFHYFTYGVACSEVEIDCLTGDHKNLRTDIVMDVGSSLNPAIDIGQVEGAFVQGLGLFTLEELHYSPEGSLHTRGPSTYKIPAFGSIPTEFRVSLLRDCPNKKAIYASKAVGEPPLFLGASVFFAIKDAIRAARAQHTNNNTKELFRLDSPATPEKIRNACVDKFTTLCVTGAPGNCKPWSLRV

molecule | IC50
COc1ccc(-c2cc(O)nc(O)n2)cc1 | > 100 µM

-- ask # input molecule: COc1ccc(-c2nc(-c3ccncc3)cn2O)cc1C#N ; wanted: its IC50
-- reply 15.4 µM

-- ask # input molecule: CC(C)(C)COc1ccc(-c2cc(=O)[nH]c(N)n2)cc1C#N ; wanted: its IC50
-- reply 0.004 µM

-- ask # input molecule: COc1cc(-c2oc3cc(O)cc(O)c3c(=O)c2OC)cc(O)c1OC ; wanted: its IC50
-- reply 0.09 µM

-- ask # input molecule: CC(=O)Nc1cccc(C(=O)CC(NC(C)=O)c2ccc(Cl)cc2)c1 (configuration not stated) ; wanted: its IC50
-- reply 41.8 µM

-- ask # input molecule: CC(=O)NC(CC(=O)c1ccccc1)c1ccc2ccccc2c1 (configuration not stated) ; wanted: its IC50
-- reply 53 µM

-- ask # input molecule: Cc1cccc(COc2cc(O)cc3oc4cc(O)c(O)cc4c(=O)c23)c1 ; wanted: its IC50
-- reply 13.6 µM

-- ask # input molecule: CCNC(=O)/C=C/c1ccc(O)c2oc(-c3ccc(O)c(O)c3)cc12 ; wanted: its IC50
-- reply 13.5 µM
